MIC reference
Tested on: Mycobacterium kansasii
assay: Antimycobacterial activity against Mycobacterium kansasii 235/80 after 7 days
Format: functional
condition.set: 235/80, 168 h
API: value field is a number in µM; no unit string.

Query: Item under review: "O=C(NC12CC3CC(CC(C3)C1)C2)Oc1ccc(Cl)cc1" . Reported MIC?
Reply: 125

Query: Item under review: Oc1ccc(Cl)cc1 [PARACHLOROPHENOL] . Reported MIC?
Reply: 250

Query: Item under review: "O=C(NCCc1ccccc1)Oc1ccc(Cl)cc1C(=O)Nc1ccc(C(F)(F)F)cc1" . Reported MIC?
Reply: 4

###

Test system: Mycobacterium tuberculosis
assay: Antimycobacterial activity against XDR Mycobacterium tuberculosis Praha 131 after 14 days
Assay type: functional
condition.set: Praha 131, 336 h
quantity: MIC (µM)
API: value field is a number in µM; no unit string.

// below: answered compounds
Query: Item under review: "O=C(NC1CCCCC1)Oc1ccc(Cl)cc1C(=O)Nc1ccc(C(F)(F)F)cc1" . Reported MIC?
Reply: 0.5

Query: Item under review: "O=C(Nc1ccccc1)Oc1ccc(Cl)cc1C(=O)Nc1ccc(C(F)(F)F)cc1" . Reported MIC?
Reply: 1

Query: Item under review: "O=C(NC12CC3CC(CC(C3)C1)C2)Oc1ccc(Cl)cc1C(=O)Nc1ccc(C(F)(F)F)cc1" . Reported MIC?
Reply: 1

Now consider a different compound.
Query: Item under review: "O=C(NCCc1ccccc1)Oc1ccc(Cl)cc1C(=O)Nc1ccc(C(F)(F)F)cc1" . Reported MIC?
Reply: 2

###

selectivity ratio reference
assay: in vitro
condition.set: human, HepG2 cells
Description: Selectivity index, ratio of IC50 for human HepG2 cells to MIC for antimycobacterial activity against Mycobacterium tuberculosis H37Rv

Query: Item under review: "O=C(NC1CCCCC1)Oc1ccc(Cl)cc1" . Reported selectivity ratio?
Reply: > 0.3

###

System: Mycobacterium kansasii
assay: Antimycobacterial activity against Mycobacterium kansasii 235/80 after 21 days
Assay type: functional
condition.set: 235/80, 504 h
Returns: string. Value is True if measured MIC is below 20 µM, and False if it is greater than or equal to it.

Check out these entries, answers already filled in.
Query: Lab log: compare recorded MIC with 20 µM; is it strictly lower for "O=C(Nc1ccccc1)Oc1ccc(Cl)cc1C(=O)Nc1ccc(Cl)cc1" ?
Reply: False

Query: Lab log: compare recorded MIC with 20 µM; is it strictly lower for "O=C(NCCc1ccccc1)Oc1ccc(Cl)cc1C(=O)Nc1ccc(C(F)(F)F)cc1" ?
Reply: True

Query: Lab log: compare recorded MIC with 20 µM; is it strictly lower for "O=C(Nc1ccccc1)Oc1ccc(Cl)cc1C(=O)Nc1ccc(C(F)(F)F)cc1" ?
Reply: True

Query: Lab log: compare recorded MIC with 20 µM; is it strictly lower for "O=C(NC12CC3CC(CC(C3)C1)C2)Oc1ccc(Cl)cc1C(=O)Nc1ccc(Cl)cc1" ?
Reply: True

Query: Lab log: compare recorded MIC with 20 µM; is it strictly lower for "O=C(Nc1ccccc1)Oc1ccc(Cl)cc1C(=O)Nc1ccc(F)cc1" ?
Reply: False

New cases:
Query: Lab log: compare recorded MIC with 20 µM; is it strictly lower for "O=C(NC12CC3CC(CC(C3)C1)C2)Oc1ccc(Cl)cc1C(=O)Nc1ccc(Br)cc1" ?
Reply: True

Query: Lab log: compare recorded MIC with 20 µM; is it strictly lower for "O=C(Nc1ccccc1)Oc1ccc(Cl)cc1C(=O)Nc1ccc(Br)cc1" ?
Reply: True

Query: Lab log: compare recorded MIC with 20 µM; is it strictly lower for "O=C(NC12CC3CC(CC(C3)C1)C2)Oc1ccc(Cl)cc1C(=O)Nc1ccc(F)cc1" ?
Reply: True

Query: Lab log: compare recorded MIC with 20 µM; is it strictly lower for "O=C(NC12CC3CC(CC(C3)C1)C2)Oc1ccc(Cl)cc1" ?
Reply: False

Query: Lab log: compare recorded MIC with 20 µM; is it strictly lower for "O=C(NCCc1ccccc1)Oc1ccccc1C(=O)Nc1ccccc1" ?
Reply: False

###

MIC reference
System: Mycobacterium tuberculosis
Format: functional
condition.set: H37Rv 331/88, 504 h
API: value field is a number in µM; no unit string.

// below: answered compounds
Query: Item under review: "O=C(NC12CC3CC(CC(C3)C1)C2)Oc1ccc(Cl)cc1C(=O)Nc1ccc(F)cc1" . Reported MIC?
Reply: 4

Query: Item under review: "O=C(Nc1ccccc1)Oc1ccc(Cl)cc1C(=O)Nc1ccc(Cl)cc1" . Reported MIC?
Reply: 16

Query: Item under review: "O=C(Nc1ccccc1)Oc1ccc(Cl)cc1C(=O)Nc1ccc(F)cc1" . Reported MIC?
Reply: 8

Query: Item under review: "O=C(NC1CCCCC1)Oc1ccc(Cl)cc1C(=O)Nc1ccc(Br)cc1" . Reported MIC?
Reply: 16

Now consider a different compound.
Query: Item under review: "O=C(Nc1ccccc1)Oc1ccccc1C(=O)Nc1ccccc1" . Reported MIC?
Reply: 125

###

System: Mycobacterium tuberculosis
Assay type: functional
condition.set: H37Rv 331/88, 504 h
quantity: log10 MIC (log10 of the value in µM)
Remember, log10 of MIC, in µM.

// below: answered compounds
Query: Item under review: "O=C(NC1CCCCC1)Oc1ccccc1C(=O)Nc1ccccc1" . Reported log10 MIC?
Reply: 2.10

Query: Item under review: "O=C(NC1CCCCC1)Oc1ccc(Cl)cc1C(=O)Nc1ccc(C(F)(F)F)cc1" . Reported log10 MIC?
Reply: 0.00

Query: Item under review: "O=C(NC12CC3CC(CC(C3)C1)C2)Oc1ccc(Cl)cc1C(=O)Nc1ccc(Cl)cc1" . Reported log10 MIC?
Reply: 1.20

Query: Item under review: "O=C(Nc1ccccc1)Oc1ccc(Cl)cc1C(=O)Nc1ccc(C(F)(F)F)cc1" . Reported log10 MIC?
Reply: 0.00

Query: Item under review: "O=C(NCc1ccccc1)Oc1ccc(Cl)cc1C(=O)Nc1ccc(Br)cc1" . Reported log10 MIC?
Reply: 1.20

New cases:
Query: Item under review: "O=C(NC12CC3CC(CC(C3)C1)C2)Oc1ccccc1C(=O)Nc1ccccc1" . Reported log10 MIC?
Reply: 2.10

Query: Item under review: "O=C(NCCc1ccccc1)Oc1ccc(Cl)cc1C(=O)Nc1ccc(F)cc1" . Reported log10 MIC?
Reply: 0.60

###

selectivity ratio reference
assay: in vitro
condition.set: human, HepG2 cells

// below: answered compounds
Query: Item under review: "O=C(NC1CCCCC1)Oc1ccc(Cl)cc1C(=O)Nc1ccc(F)cc1" . Reported selectivity ratio?
Reply: 2.7 to 5.3

Query: Item under review: "O=C(Nc1ccccc1)Oc1ccccc1C(=O)Nc1ccccc1" . Reported selectivity ratio?
Reply: 0.5

Query: Item under review: "O=C(Nc1ccccc1)Oc1ccc(Cl)cc1C(=O)Nc1ccc(C(F)(F)F)cc1" . Reported selectivity ratio?
Reply: 9.8 to 19.6

Now consider a different compound.
Query: Item under review: "O=C(NCc1ccccc1)Oc1ccccc1C(=O)Nc1ccccc1" . Reported selectivity ratio?
Reply: > 1

###

Tested on: Mycobacterium tuberculosis
Format: functional
condition.set: H37Rv 331/88, 504 h
MIC reference
Units required after the number.

Query: Item under review: "Oc1ccc(Cl)cc1" . Reported MIC?
Reply: 250 µM

Query: Item under review: "O=C(NC1CCCCC1)Oc1ccc(Cl)cc1" . Reported MIC?
Reply: 500 µM

Query: Item under review: "O=C(NCCc1ccccc1)Oc1ccc(Cl)cc1C(=O)Nc1ccc(Cl)cc1" . Reported MIC?
Reply: 16 µM

Query: Item under review: "O=C(NC12CC3CC(CC(C3)C1)C2)Oc1ccc(Cl)cc1" . Reported MIC?
Reply: 125 µM

Query: Item under review: "O=C(NCCc1ccccc1)Oc1ccc(Cl)cc1" . Reported MIC?
Reply: 250 µM

New cases:
Query: Item under review: "NNC(=O)c1ccncc1" . Reported MIC?
Reply: 1 µM

###

target.or.system: Isocitrate lyase (Mycobacterium tuberculosis)
Sequence (P9WKK7 whole entry): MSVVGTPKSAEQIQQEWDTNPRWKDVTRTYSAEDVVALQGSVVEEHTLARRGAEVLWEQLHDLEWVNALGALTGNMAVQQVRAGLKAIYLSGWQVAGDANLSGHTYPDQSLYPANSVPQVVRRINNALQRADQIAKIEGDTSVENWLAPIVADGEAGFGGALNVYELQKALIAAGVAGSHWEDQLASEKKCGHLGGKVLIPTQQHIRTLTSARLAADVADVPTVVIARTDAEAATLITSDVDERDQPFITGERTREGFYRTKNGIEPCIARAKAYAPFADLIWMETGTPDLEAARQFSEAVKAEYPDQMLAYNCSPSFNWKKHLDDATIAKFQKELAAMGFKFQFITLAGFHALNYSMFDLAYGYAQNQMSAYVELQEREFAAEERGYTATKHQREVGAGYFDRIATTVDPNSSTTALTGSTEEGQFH
assay: Inhibition of recombinant Mycobacterium tuberculosis ICL expressed in Escherichia coli BL21 (DE3) cells using DL-isocitric acid trisodium salt hydrate as substrate after 30 mins
quantity: IC50

Query: Item under review: "COC(=O)/C=C/C(=O)c1ccc(OC)cc1" . Reported IC50?
Reply: 30.9 µM

###

MIC reference
System: Mycobacterium tuberculosis
Type: functional
condition.set: H37Rv 331/88, 504 h
API: value field is a number in µM; no unit string.

Query: Look up MIC with Mycobacterium tuberculosis for this compound: "O=C(NCc1ccccc1)Oc1ccccc1C(=O)Nc1ccccc1"
Reply: 125

Query: Look up MIC with Mycobacterium tuberculosis for this compound: "O=C(NC1CCCCC1)Oc1ccc(Cl)cc1C(=O)Nc1ccc(Cl)cc1"
Reply: 16

Query: Look up MIC with Mycobacterium tuberculosis for this compound: "O=C(NCCc1ccccc1)Oc1ccc(Cl)cc1C(=O)Nc1ccc(Br)cc1"
Reply: 8

Query: Look up MIC with Mycobacterium tuberculosis for this compound: Nc1ccc(C(=O)O)c(O)c1 [AMINOSALICYLIC ACID]
Reply: 62.5

New cases:
Query: Look up MIC with Mycobacterium tuberculosis for this compound: "O=C(NC12CC3CC(CC(C3)C1)C2)Oc1ccc(Cl)cc1C(=O)Nc1ccc(Br)cc1"
Reply: 8

Query: Look up MIC with Mycobacterium tuberculosis for this compound: "O=C(NCc1ccccc1)Oc1ccc(Cl)cc1C(=O)Nc1ccc(F)cc1"
Reply: 16

Query: Look up MIC with Mycobacterium tuberculosis for this compound: "O=C(NCCc1ccccc1)Oc1ccccc1C(=O)Nc1ccccc1"
Reply: 125

Query: Look up MIC with Mycobacterium tuberculosis for this compound: "O=C(NCc1ccccc1)Oc1ccc(Cl)cc1C(=O)Nc1ccc(Cl)cc1"
Reply: 16

Query: Look up MIC with Mycobacterium tuberculosis for this compound: "O=C(NCCc1ccccc1)Oc1ccc(Cl)cc1C(=O)Nc1ccc(C(F)(F)F)cc1"
Reply: 1

Query: Look up MIC with Mycobacterium tuberculosis for this compound: "O=C(Nc1ccccc1)Oc1ccc(Cl)cc1C(=O)Nc1ccc(Br)cc1"
Reply: 16

Values from ChEMBL document CHEMBL4406824
